Molecular target: soluble G614 HexaPro spike ectodomain (SARS-CoV-2, UniProt P0DTC2 14-1208)
MEASURED ATTRIBUTE: Kd (nM)

binder="AB-5 full-length IgG1 (antibody, V domains shown) VH: EVQLEESGTVLARPGASVKMSCKASGYTFTSYWMHWIKQRPGQGLEWIGAIYPGNGDTNYNQKFKDKAKLTAVKSTSSAYMELSSLTNEDSAVYFCTREGIPQLLNTLDVWGQGTSVTVSS VL: DILMTQSPSSLSASLGERVSLTCRASQEISGYLSWLQEKPDGTIKRLIYAASTLDSGVPKRFSGSRSGSDYSLTISSLESEDFADYYCQQYLSYPWTFGGGTKLEIK" measured_attribute=Kd recorded_value=2.09
binder="AB-1 full-length IgG1 (antibody, V domains shown) VH: EVQLEESGTVLARPGASVKMSCKASGYTFTTYWMHWIKQRPGQGLEWIGAIYPGNSDTQYNQKFKDKAKLTAVKSTSSAYMELSSLTNEDSAVYFCTREGIPQLLRTLDYWGQGTSVTVSS VL: DILMTQSPSSLSASLGERVSLTCRASQEISGYLSWLQEKPDGTIKRLIYAASTLDSGVPKRFSGSRSGSDYSLTISSLESEDFADYYCLQYLSYPWTFGGGTKLEIK" measured_attribute=Kd recorded_value=0.389
binder="AB-8 full-length IgG1 (antibody, V domains shown) VH: EVQLEESGTVLARPGASVKMSCKASGYTFTTYWMHWIKQRPGQGLEWIGAIYPGNSDTIYNQKFKDKAKLTAVKSTSSAYMELSSLTNEDSAVYFCTREGIPQLLRTLDYWGQGTSVTVSS VL: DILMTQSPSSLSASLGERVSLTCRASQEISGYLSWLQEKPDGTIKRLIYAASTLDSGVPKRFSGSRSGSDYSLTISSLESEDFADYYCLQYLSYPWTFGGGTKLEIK" measured_attribute=Kd recorded_value=1.73
